Please provide measured IC50, TF-1 cell proliferation for the entries that follow.
Molecular target: T1, human GM-CSFRα, full length on cells (human, UniProt P15509 23-400)
T1 sequence: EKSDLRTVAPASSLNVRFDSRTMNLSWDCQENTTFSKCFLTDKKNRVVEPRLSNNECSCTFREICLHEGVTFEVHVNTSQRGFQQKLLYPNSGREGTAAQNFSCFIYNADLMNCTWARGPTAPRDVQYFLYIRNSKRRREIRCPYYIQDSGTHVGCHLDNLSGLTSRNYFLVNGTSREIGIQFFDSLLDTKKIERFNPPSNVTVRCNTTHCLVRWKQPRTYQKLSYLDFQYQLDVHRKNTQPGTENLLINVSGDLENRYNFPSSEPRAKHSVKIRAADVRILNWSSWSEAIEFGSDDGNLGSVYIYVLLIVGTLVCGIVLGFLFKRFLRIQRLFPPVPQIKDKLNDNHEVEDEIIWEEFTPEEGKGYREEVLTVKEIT
Experiment: cell-based or functional assay
State the answer as a number, implicitly in µg/mL.

What measured IC50, TF-1 cell proliferation goes with E35-scFv LS52Y (scFv, V domains shown) VH: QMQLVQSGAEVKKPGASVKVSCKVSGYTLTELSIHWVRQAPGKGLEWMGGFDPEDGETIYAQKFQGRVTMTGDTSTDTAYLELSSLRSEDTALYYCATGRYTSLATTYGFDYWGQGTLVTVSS VL: EIVMTQSPATLSLSPGERATLSCRASQSVSSYLAWYQQKPGQAPRLLIYGAYSRATGIPDRFSGSGSGTDFTLTISRLEPEDFAVYYCQQYDNWPYTFGQGTKLEIK ? 0.181

Continue with E35-scFv LY32W (scFv, V domains shown) VH: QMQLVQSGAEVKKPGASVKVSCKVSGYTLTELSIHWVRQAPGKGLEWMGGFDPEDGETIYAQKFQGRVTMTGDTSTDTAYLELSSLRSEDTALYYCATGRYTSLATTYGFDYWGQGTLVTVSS VL: EIVMTQSPATLSLSPGERATLSCRASQSVSSWLAWYQQKPGQAPRLLIYGASSRATGIPDRFSGSGSGTDFTLTISRLEPEDFAVYYCQQYDNWPYTFGQGTKLEIK 1.17

Check E35-scFv LY32M (scFv, V domains shown) VH: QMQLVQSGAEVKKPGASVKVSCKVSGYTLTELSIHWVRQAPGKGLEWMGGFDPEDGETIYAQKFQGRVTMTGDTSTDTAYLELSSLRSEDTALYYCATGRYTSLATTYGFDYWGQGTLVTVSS VL: EIVMTQSPATLSLSPGERATLSCRASQSVSSMLAWYQQKPGQAPRLLIYGASSRATGIPDRFSGSGSGTDFTLTISRLEPEDFAVYYCQQYDNWPYTFGQGTKLEIK too. 0.42

Moving on to the next binder: E35-scFv LA51C (scFv, V domains shown) VH: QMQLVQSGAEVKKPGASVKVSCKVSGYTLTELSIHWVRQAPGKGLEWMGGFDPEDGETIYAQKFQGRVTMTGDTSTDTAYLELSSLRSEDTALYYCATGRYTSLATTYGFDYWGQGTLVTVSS VL: EIVMTQSPATLSLSPGERATLSCRASQSVSSYLAWYQQKPGQAPRLLIYGCSSRATGIPDRFSGSGSGTDFTLTISRLEPEDFAVYYCQQYDNWPYTFGQGTKLEIK 0.37

And for E35-scFv LS30Y (scFv, V domains shown) VH: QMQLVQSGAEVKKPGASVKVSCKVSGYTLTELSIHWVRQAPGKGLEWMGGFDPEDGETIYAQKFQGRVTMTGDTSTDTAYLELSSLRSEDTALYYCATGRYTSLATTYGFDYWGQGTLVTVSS VL: EIVMTQSPATLSLSPGERATLSCRASQSVYSYLAWYQQKPGQAPRLLIYGASSRATGIPDRFSGSGSGTDFTLTISRLEPEDFAVYYCQQYDNWPYTFGQGTKLEIK ? 0.082
